Cited source for all entries: PubChem BioAssay (NCI)

Tested on: IGROV1 ovarian
Assay: NCI tumour cell line growth inhibition, 48 h
Overview of reported TGI across a group of molecules:
READOUT LABEL: TGI

INSERT INTO assay_data (molecule, readout_label, observed_result) VALUES
  ('Cc1cc2nc3c(C(O)CO)nn(-c4ccccc4)c3nc2cc1C (stereo not given)', 'TGI', '43.9 µM'),
  ('O=C(c1ccc(NCN2C(=O)CCC2=O)cc1)c1ccc(NCN2C(=O)CCC2=O)cc1', 'TGI', '> 100 µM'),
  ('Cc1ccc(NC(=S)NNC(=O)c2cc(-c3ccccc3)nc3ccccc23)cc1C', 'TGI', '63.6 µM'),
  ('CC1(C)OC[C@@]2([C@@H]3CC[C@@H](C3)C2(C)C)N1O', 'TGI', '> 100 µM'),
  ('O=C(Nc1nccs1)c1cc(C2=CC=CC([N+](=O)[O-])C=C2)nc(=S)[nH]1 (stereo not given)', 'TGI', '> 100 µM'),
  ('Cc1cc(N/N=C/c2nc(-c3ccccc3)oc2C)c2cc(Cl)ccc2n1', 'TGI', '3.32 µM'),
  ('COc1cc2cnc3c(c2cc1OC)Cc1cc2c(cc1-3)OCO2', 'TGI', '> 62.9 µM'),
  ('COc1ccc(/C=C(\C#N)c2cc(OC)c3c(c2)OCO3)cc1', 'TGI', '32 µM'),
  ('C=CCC1(O)c2cccc(O)c2C(=O)c2cccc(O)c21 (stereo not given)', 'TGI', '> 100 µM'),
  ('O=C(c1cc(-c2cc3c(cc2C(=O)N2Cc4ccccc4C[C@H]2CN2CCOCC2)OCO3)n2c1CCCC2)N(c1ccccc1)c1ccc(O)cc1', 'TGI', '> 100 µM'),
  ('O=C1NC2(O)c3ccccc3C(=O)C2(O)N1c1ccccc1 (stereo not given)', 'TGI', '> 100 µM'),
  ('CC(=O)OC[C@@H]1[C@H]2CC(=O)O[C@H]2C[C@H]1OC(C)=O', 'TGI', '> 100 µM'),
  ('NC1CCC[C@@H](O)[C@H]1O (stereo not given in full)', 'TGI', '> 100 µM'),
  ('CCOC(=O)CC[C@@H](NC(=O)c1ccc(NCc2ccc3nc(OC)c(OC)nc3c2)cc1)C(=O)OCC', 'TGI', '56.7 µM'),
  ('O=C(O)c1cc2c(cc1S(=O)(=O)O)C1C(C3C2C2(Cl)C(Cl)=C(Cl)C3(Cl)C2(Cl)Cl)C2(Cl)C(Cl)=C(Cl)C1(Cl)C2(Cl)Cl (stereo not given)', 'TGI', '> 100 µM');

----------
System: A549 NSCLC
Experiment: NCI tumour cell line growth inhibition, 48 h; in the data active means GI50 below about 0.43 µM; inactive means the rest
*1 amine or outer side, *2 acyl side, *3 side chain or, on linkers, in order; H or OH if unused. Where a SMILES comes first, the peptide text is derived from it. Bridges are numbered along the chain shown (N, C = ends). [ ]: non-standard residue; d: D form. The star is where a group is joined. Phe(3-Me) = Cc1cccc(C[C@H](N)C(=O)O)c1; NH(4-Cl-2-F-phenyl) = Fc1cc(Cl)ccc1N*; Pro(4R-Me) = C[C@H]1CN[C@H](C(=O)O)C1; Hyp = O=C(O)[C@@H]1C[C@@H](O)CN1; aThr = C[C@H](O)[C@H](N)C(=O)O; Pip = O=C(O)[C@@H]1CCCCN1; CO = O=C([*:1])[*:2]
Classes used: active, inactive

INSERT INTO results (molecule, class_assignment) VALUES
  ('Cc1cc2c(C(N)=O)cccc2n1-c1nc2c(c(NCc3ccccc3)n1)CCCN2', 'active'),
  ('O=c1[nH]nc2c3c(cccc13)NC(CN1Cc3ccccc3C1)=N2', 'inactive'),
  ('C[C@@H]1CCN(C(=O)CC#N)C[C@@H]1N(C)c1ncnc2[nH]ccc12', 'inactive'),
  ('O=C(O)c1ccc(NS(=O)(=O)c2cccc3cccnc23)cc1', 'inactive'),
  ('COc1ccc(C(=O)/C=C/c2cc(C(=O)c3cc(OC)c(OC)c(OC)c3)ccc2OC)cc1', 'inactive'),
  ('Cc1nn2c(/C=C3/C(=O)Nc4ccc(Cl)cc43)c(-c3ccccc3)nc2s1', 'inactive'),
  ('O=C(Nc1ccncc1)C(=O)c1cn(S(=O)(=O)c2ccccc2F)c2ccccc12', 'inactive'),
  ('CN(/N=N/c1nc(OCc2ccccc2)c2[nH]cnc2n1)C(=O)N(C)/N=N/c1nc(OCc2ccccc2)c2[nH]cnc2n1', 'inactive'),
  ('N#CSCC1CC(O)(c2ccccc2)C(c2ccccc2)C(c2ccc(F)cc2)O1 (centres undefined)', 'inactive'),
  ('CCOC(=O)[C@@H](C)C[C@H](Cc1ccccc1)NC(=O)c1csc([C@@H](C[C@H](C(C)C)N(C)C(=O)[C@H](CCC(C)C)NC(=O)[C@H]2CCCCN2C)OC(C)=O)n1', 'active'),
  ('O=[N+]([O-])c1cc(Br)cc2c1[nH]c1ccc(Br)cc12', 'inactive'),
  ('CCCCC(=O)[O-].N.N.N.N.N.[Co+3].[O-][Cl+3]([O-])([O-])[O-]', 'inactive'),
  ('CN1CCN(Cc2ccc(NC(=O)c3[nH]ncc3Nc3ncnc4c3CCC4)cc2)CC1', 'inactive'),
  ('COc1ccc(C2=C(c3cn(C)c4ccccc34)C(=O)NC2=O)cc1OC', 'inactive'),
  ('O=C(c1cc(-c2cc3c(cc2C(=O)N2Cc4ccccc4C[C@H]2CN2CCOCC2)OCO3)n2c1CCCC2)N(c1ccccc1)c1ccc(O)cc1', 'inactive'),
  ('Cc1cccc(C[C@H](NC(=O)Nc2ccc(Cl)cc2F)C(=O)N[C@@H]2C(=O)N3C[C@H](O)C[C@H]3C(=O)N3CCCC[C@H]3C(=O)N[C@@H](C)C(=O)N3C[C@H](C)C[C@H]3C(=O)O[C@H]2C)c1 ({NH(4-Cl-2-F-phenyl)-CO}-[Phe(3-Me)][aThr][Hyp][Pip]A[Pro(4R-Me)]; ester 2-C)', 'inactive'),
  ('Cc1c(Cl)cccc1NC(=O)c1sc2nc3c(cc2c1N)CCCCCC3', 'active'),
  ('Cc1ccc(NS(=O)(=O)c2cc(C)ccc2C)cc1', 'inactive'),
  ('Cc1nc(Nc2ccc(F)c(Cl)c2)sc1C(=O)O', 'inactive');

----------
System: SF-268 CNS
Test: NCI tumour cell line growth inhibition, 48 h; in the data active = GI50 below about 0.43 µM; inactive = the rest
Classes used: active, inactive

INSERT INTO assay_data (molecule, class_assignment) VALUES
  ('O=C(Nc1ccc(Nc2ccncc2)cc1)c1ccc(Nc2ccnc3ccc([N+](=O)[O-])cc23)cc1', 'inactive'),
  ('CCS(=O)(=O)c1ccc(OC)c(Nc2nccc(N(C)c3ccc4c(C)[nH]nc4c3)n2)c1', 'inactive'),
  ('C#CC[C@H](c1nc2cc(Cl)ccc2c(=O)n1Nc1ccccc1)N(CCCN)C(=O)c1cccc(Cl)c1F', 'active'),
  ('Cc1nc(NC(=S)Nc2ccc(F)cc2)sc1C(=O)NNC(=S)Nc1ccc(F)cc1', 'inactive'),
  ('Cc1cc2c(C(N)=O)cccc2n1-c1nc2c(c(NCc3ccccc3)n1)CCCN2', 'active'),
  ('Clc1cc(Cl)cc(N2N=C(c3cccc(Nc4ccncc4)c3)CC2c2ccc(Br)cc2)c1 (configuration not stated)', 'inactive'),
  ('Cc1ccc(C(=O)N/N=C/c2cccc(Oc3ccccc3)c2)cn1', 'inactive');

----------
Overview of reported TGI across a group of molecules:
Test system: LOX IMVI melanoma
Test: NCI tumour cell line growth inhibition, 48 h
READOUT LABEL: TGI

INSERT INTO results (molecule, experimental_target, observed_result) VALUES
  ('Cc1cc2c(c(C#N)c1C)NC(=O)C(CC(=O)O)C2=O (centres undefined)', 'LOX IMVI melanoma', '> 100 µM'),
  ('N#Cc1nsnc1-c1nc(-c2nsnc2C#N)nc(-c2nsnc2C#N)n1', 'LOX IMVI melanoma', '> 100 µM'),
  ('O=Cc1[nH]c2ccccc2c1Br', 'LOX IMVI melanoma', '75.7 µM'),
  ('O=[N+]([O-])c1cc(Br)cc2c1[nH]c1ccc(Br)cc12', 'LOX IMVI melanoma', '> 100 µM'),
  ('COc1cc(-c2cn(-c3ccc(Cl)cc3)c(=O)[nH]2)cc(OC)c1OC', 'LOX IMVI melanoma', '> 100 µM'),
  ('c1ccc2[nH]c(-c3ccc(OCCCCCOc4ccc(-c5nc6ccccc6[nH]5)cc4)cc3)nc2c1', 'LOX IMVI melanoma', '2.57 µM'),
  ('O=S(=O)(O)c1ccc(N=Nc2ccc(N=Nc3ccc(/C=C/c4ccc(N=[N+]([O-])c5ccc(/C=C/c6ccc(N=Nc7ccc(N=Nc8ccc(S(=O)(=O)O)cc8)c8ccccc78)cc6S(=O)(=O)O)c(S(=O)(=O)O)c5)cc4S(=O)(=O)O)c(S(=O)(=O)O)c3)c3ccccc23)cc1', 'LOX IMVI melanoma', '> 100 µM'),
  ('C=C1C(C[C@@H]2O[C@H]3C[C@H]4O[C@@]5(C[C@@H]6O[C@]7(C[C@H](C)[C@@H]8O[C@@H]9CC(C(O)CO)O[C@@H]9C[C@@H]8O7)C[C@H](C)[C@@H]6O5)C[C@H]4O[C@H]3[C@H](C)[C@H]2O)O[C@@H](CC[C@@H]2O[C@@H](CC[C@@]34CC5O[C@H]6C(O[C@H]7CC[C@H](CC(=O)OC)O[C@@H]7[C@@H]6O3)[C@H]5O4)CC2=C)C[C@H]1C (some centres undefined)', 'LOX IMVI melanoma', '> 0.292 µM'),
  ('Cc1nn2c(/C=C3/C(=O)Nc4ccc(Cl)cc43)c(-c3ccccc3)nc2s1', 'LOX IMVI melanoma', '14.8 µM'),
  ('CSCCCNC(=O)c1csc([C@@H](CSC)NC(=O)CCNC(=O)[C@@H](NC(=O)OCC(Br)(Br)Br)C(C)O)n1 (some centres undefined)', 'LOX IMVI melanoma', '> 100 µM'),
  ('COc1ccc(C2=C(c3cn(C)c4ccccc34)C(=O)NC2=O)cc1OC', 'LOX IMVI melanoma', '> 25 µM'),
  ('O=C(CNC(=O)c1cccc2ccccc12)Nc1ccccc1Oc1ccccc1', 'LOX IMVI melanoma', '> 10 µM'),
  ('COc1ncc(C#CC(=O)c2ccccc2OC)c(OC)n1', 'LOX IMVI melanoma', '0.794 µM'),
  ('Cc1c(C(=O)CC(=O)C(=O)Nc2cccc(C(F)(F)F)c2)[n+](=O)c2ccccc2n1[O-]', 'LOX IMVI melanoma', '12.7 µM'),
  ('N#CC1(c2nc3ccccc3o2)C(=O)C(=O)N(c2ccc(Cl)c(Cl)c2)C(=O)C1=O', 'LOX IMVI melanoma', '> 100 µM'),
  ('O=[N+]([O-])C(=C/C1CCCCC1)/C(=C\C1CCCCC1)[N+](=O)[O-]', 'LOX IMVI melanoma', '4.94 µM'),
  ('NNC(=O)CCCCCCCC(=O)O', 'LOX IMVI melanoma', '> 100 µM'),
  ('CC(=O)O[C@@H]1CC(C)C2CC2C2=C(C(O)OC2O)[C@@H]1C(C)CCC=C(C)C (some centres undefined)', 'LOX IMVI melanoma', '40.9 µM'),
  ('Cc1ccc(NC2=C(Sc3ccc(Cl)cc3)C(=O)N(Cc3ccccc3)C2=O)cc1Cl', 'LOX IMVI melanoma', '17.1 µM'),
  ('O=C(c1cc(-c2cc3c(cc2C(=O)N2Cc4ccccc4C[C@H]2CN2CCOCC2)OCO3)n2c1CCCC2)N(c1ccccc1)c1ccc(O)cc1', 'LOX IMVI melanoma', '> 100 µM'),
  ('CC(C)(C)OC(=O)/C=C/C(=O)O/C=C/[N+](=O)[O-]', 'LOX IMVI melanoma', '> 100 µM'),
  ('COC[C@H]1OC(=O)c2coc3c2[C@@]1(C)C1=C(C3=O)[C@@H]2CCC(=O)[C@@]2(C)C[C@H]1OC(C)=O', 'LOX IMVI melanoma', '53.8 µM'),
  ('O=C(Nc1nccs1)c1cc(C2=CC=CC([N+](=O)[O-])C=C2)nc(=S)[nH]1 (centres undefined)', 'LOX IMVI melanoma', '> 100 µM'),
  ('CC1=NN(C(=O)CC(=O)Nc2cccc(Cl)c2)C(=O)C1N=Nc1ccc(S(=O)(=O)c2ccc(N=NC3C(=O)N(C(=O)CC(=O)Nc4cccc(Cl)c4)N=C3C)cc2)cc1 (centres undefined)', 'LOX IMVI melanoma', '> 100 µM'),
  ('COC(=O)c1ccc(NCC2=CC(=O)c3ccccc3C2=O)cc1', 'LOX IMVI melanoma', '23.3 µM'),
  ('CCOC(=O)NC(=O)c1cn(CCCOC(=O)CCCCCCCCC(=O)OCCCn2cc(C(=O)NC(=O)OCC)c(=O)[nH]c2=O)c(=O)[nH]c1=O', 'LOX IMVI melanoma', '> 100 µM'),
  ('Cc1cccc(C)c1NC(=O)C(=O)CC(=O)CO', 'LOX IMVI melanoma', '> 100 µM'),
  ('COC(=O)[C@H]1ON2O[C@@H](O[C@H]3CCCC[C@@H]3C(C)(C)c3ccccc3)C[C@@H]3CC[C@H]1[C@@]32C', 'LOX IMVI melanoma', '> 100 µM'),
  ('Cn1c(=O)c2[nH]c(COCc3nc4c([nH]3)c(=O)n(C)c(=O)n4C)nc2n(C)c1=O', 'LOX IMVI melanoma', '> 100 µM'),
  ('CCOC(=O)CC[C@@H](NC(=O)c1ccc(NCc2ccc3nc(OC)c(OC)nc3c2)cc1)C(=O)OCC', 'LOX IMVI melanoma', '> 100 µM'),
  ('C#CC[C@H](c1nc2cc(Cl)ccc2c(=O)n1Nc1ccccc1)N(CCCN)C(=O)c1cccc(Cl)c1F', 'LOX IMVI melanoma', '1.84 µM'),
  ('O=C(Nc1ccncc1)C(=O)c1cn(S(=O)(=O)c2ccccc2F)c2ccccc12', 'LOX IMVI melanoma', '> 100 µM'),
  ('CCC(C)/C=C(C)/C=C/C(=O)c1c(O)c(-c2ccc(O)cc2)c[nH]c1=O (centres undefined)', 'LOX IMVI melanoma', '13.2 µM'),
  ('Cc1cc2c(cc1Cl)Sc1nnc(C)n1S2(=O)=O', 'LOX IMVI melanoma', '23.6 µM');
